Origin of measurements: patent EP4682166A1

Target: T1, human NMI (N-myc Interacting protein) (human, UniProt Q13287 1-307, limits assumed)
T1 construct: Immunogen and ELISA coating antigen; also called hNMI; antigen 1
T1 sequence (looked up): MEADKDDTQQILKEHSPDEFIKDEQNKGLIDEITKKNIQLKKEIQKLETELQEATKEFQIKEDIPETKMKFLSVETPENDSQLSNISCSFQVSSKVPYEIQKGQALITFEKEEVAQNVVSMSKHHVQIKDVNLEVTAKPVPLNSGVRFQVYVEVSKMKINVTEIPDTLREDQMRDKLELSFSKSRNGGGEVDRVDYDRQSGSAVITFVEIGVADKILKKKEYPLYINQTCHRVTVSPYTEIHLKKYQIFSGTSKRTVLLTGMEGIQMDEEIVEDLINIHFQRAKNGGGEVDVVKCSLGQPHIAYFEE
Test: I-ELISA, hNMI coated 1 ug/mL; antibody 9.765625 ng/mL
VALUE TYPE: OD450 (OD450)
Use OD450 as the unit, but write only the number.

input: Please give the measured OD450 for this binder: 98G10 (antibody, V domains shown, Rabbit monoclonal antibody; also called 98G10-1; 98G10-1-biotin (biotin-labelled form)) VH: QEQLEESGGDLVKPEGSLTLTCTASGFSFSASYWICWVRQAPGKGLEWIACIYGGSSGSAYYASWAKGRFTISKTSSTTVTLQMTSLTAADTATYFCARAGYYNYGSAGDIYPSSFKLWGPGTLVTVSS VL: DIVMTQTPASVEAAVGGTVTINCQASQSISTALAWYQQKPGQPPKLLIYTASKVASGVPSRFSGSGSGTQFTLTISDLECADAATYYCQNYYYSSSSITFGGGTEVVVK
output: 0.217

input: Note, next up: 240B10-1 (antibody, V domains shown, Rabbit monoclonal antibody; also called 240B10-1-biotin (biotin-labelled form)) VH: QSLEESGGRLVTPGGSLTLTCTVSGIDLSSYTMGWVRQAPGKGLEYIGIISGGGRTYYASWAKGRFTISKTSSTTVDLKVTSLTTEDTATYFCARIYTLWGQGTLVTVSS VL: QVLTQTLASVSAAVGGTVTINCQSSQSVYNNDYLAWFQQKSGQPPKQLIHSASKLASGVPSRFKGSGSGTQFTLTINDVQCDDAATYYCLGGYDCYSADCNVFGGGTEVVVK
output: 0.333

input: Please give the result for 39B4 (antibody, V domains shown, Rabbit monoclonal antibody; also called 39B4-1; 39B4-1-biotin (biotin-labelled form)) VH: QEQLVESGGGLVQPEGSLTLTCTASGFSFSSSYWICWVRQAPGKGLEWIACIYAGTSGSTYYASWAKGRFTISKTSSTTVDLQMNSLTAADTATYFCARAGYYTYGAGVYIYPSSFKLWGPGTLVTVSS VL: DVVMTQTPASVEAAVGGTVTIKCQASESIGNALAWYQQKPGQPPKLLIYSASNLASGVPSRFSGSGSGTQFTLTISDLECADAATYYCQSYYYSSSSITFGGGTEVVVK too.
output: 0.296
